system-name: SMARCA4-HiBiT HeLa cells (protein which is expressed from the SMARCA4 gene) (Homo sapiens, UniProt P51532)
Construct: protein which is expressed from the SMARCA2 and SMARCA4 genes; host or cells: HeLa (SMARCA4-HiBiT engineered line)
Sequence (P51532 whole entry): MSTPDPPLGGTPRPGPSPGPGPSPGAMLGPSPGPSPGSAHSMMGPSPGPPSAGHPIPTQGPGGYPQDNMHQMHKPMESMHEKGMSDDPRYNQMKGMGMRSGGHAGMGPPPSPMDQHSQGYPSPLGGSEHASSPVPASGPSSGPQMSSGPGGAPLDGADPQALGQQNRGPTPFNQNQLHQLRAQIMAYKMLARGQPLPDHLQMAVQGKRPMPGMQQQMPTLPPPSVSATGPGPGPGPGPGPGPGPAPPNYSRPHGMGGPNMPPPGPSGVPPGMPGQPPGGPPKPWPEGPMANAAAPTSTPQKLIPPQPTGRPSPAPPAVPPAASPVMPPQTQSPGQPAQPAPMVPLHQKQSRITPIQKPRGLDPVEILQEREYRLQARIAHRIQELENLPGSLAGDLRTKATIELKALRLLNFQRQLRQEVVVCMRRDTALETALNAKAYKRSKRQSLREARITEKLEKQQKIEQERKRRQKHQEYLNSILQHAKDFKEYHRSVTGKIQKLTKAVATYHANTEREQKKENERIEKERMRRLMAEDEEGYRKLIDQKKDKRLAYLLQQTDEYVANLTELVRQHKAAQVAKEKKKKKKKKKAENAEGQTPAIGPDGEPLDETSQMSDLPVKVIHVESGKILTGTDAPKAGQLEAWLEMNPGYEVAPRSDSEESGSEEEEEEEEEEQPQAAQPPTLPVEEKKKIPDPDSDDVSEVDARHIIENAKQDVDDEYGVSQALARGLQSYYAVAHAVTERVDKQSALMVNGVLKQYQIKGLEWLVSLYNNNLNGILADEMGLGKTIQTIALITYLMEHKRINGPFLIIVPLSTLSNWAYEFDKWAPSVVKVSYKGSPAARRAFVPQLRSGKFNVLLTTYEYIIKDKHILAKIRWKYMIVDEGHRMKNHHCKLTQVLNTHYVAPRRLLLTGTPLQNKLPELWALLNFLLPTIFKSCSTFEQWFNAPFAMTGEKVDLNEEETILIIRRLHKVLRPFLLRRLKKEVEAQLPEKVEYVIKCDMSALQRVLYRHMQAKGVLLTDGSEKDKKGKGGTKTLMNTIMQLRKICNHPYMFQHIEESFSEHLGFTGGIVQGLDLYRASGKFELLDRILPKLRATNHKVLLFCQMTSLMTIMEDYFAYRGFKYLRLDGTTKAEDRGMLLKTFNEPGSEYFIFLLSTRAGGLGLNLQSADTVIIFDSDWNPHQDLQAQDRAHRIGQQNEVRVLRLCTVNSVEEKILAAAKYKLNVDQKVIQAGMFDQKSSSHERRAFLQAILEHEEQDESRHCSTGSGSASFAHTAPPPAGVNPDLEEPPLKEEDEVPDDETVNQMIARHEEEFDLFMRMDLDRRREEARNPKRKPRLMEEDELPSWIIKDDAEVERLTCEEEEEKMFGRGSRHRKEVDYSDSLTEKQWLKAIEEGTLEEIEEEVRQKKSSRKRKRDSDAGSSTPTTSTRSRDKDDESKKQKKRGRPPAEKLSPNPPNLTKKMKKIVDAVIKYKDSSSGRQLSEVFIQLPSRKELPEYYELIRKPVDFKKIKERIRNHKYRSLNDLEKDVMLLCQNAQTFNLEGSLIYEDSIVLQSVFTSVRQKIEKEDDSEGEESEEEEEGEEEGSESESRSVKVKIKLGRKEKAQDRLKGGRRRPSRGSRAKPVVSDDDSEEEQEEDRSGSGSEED
method-description: SMARCA4 degradation assay (HiBiT-fusion HeLa cell line, 24 h, luminescence)
Type: cell-based
measure: DC50

The compound listed as C[C@@H]1CN(c2ccnc(C#CCNC(=O)c3cc4ncccn4n3)n2)CCN1c1cc(-c2ccccc2O)nnc1N shows DC50 equal to 500 to 5000 nM

The compound listed as C[C@@H]1CCN(c2cc(-c3ccccc3O)nnc2N)CCN1c1ccnc(C#CCN2CCC3(CC2)COC3)n1 shows DC50 equal to 50 to 500 nM

The compound listed as Cn1ccc(NCC#Cc2nccc(N3CC4CCC(C3)N4c3cc(-c4ccccc4O)nnc3N)n2)n1 shows DC50 equal to 50 to 500 nM

The compound listed as C[C@H]1CN(c2ccnc(C#CCn3ccnc3)n2)CCN1c1cc(-c2ccccc2O)nnc1N shows DC50 equal to < 50 nM

----------
Give measured DC50 for each item. Keep answers brief.
system-name: SMARCA2-HiBiT HeLa cells (protein which is expressed from the SMARCA2 gene) (Homo sapiens)
Construct: protein which is expressed from the SMARCA2 and SMARCA4 genes; host or cells: HeLa (SMARCA2-HiBiT engineered line)
method-description: SMARCA2 degradation assay (HiBiT-fusion HeLa cell line, 24 h, luminescence)
Type: cell-based

The compound listed as CN(C)CC#Cc1nccc(N2CCC3(CC2)CCN(c2cc(-c4ccccc4O)nnc2N)C3)n1 shows DC50 equal to < 0.05 µM

The compound listed as COCc1cc(N2CCCN(c3cc(-c4ccccc4O)nnc3N)CC2)nc(C#CCNC(=O)c2cc3ncccn3n2)n1 shows DC50 equal to 0.05 to 0.5 µM

The compound listed as C[C@@H]1CCN(c2cc(-c3ccccc3O)nnc2N)CCN1c1ccnc(C#CCNC(=O)OC2CC/C=C\CCC2)n1 (stereo partly drawn) shows DC50 equal to 0.05 to 0.5 µM

The compound listed as Nc1nnc(-c2ccccc2O)cc1N1CC2CCC(C1)N2c1ccnc(C#CCCNC(=O)c2cc3ncccn3n2)n1 shows DC50 equal to 0.5 to 5 µM

The compound listed as Nc1nnc(-c2ccccc2O)cc1N1CCN(c2ccnc(C#CCNC(=O)c3cccnc3)n2)CC1 shows DC50 equal to 0.05 to 0.5 µM

The compound listed as CNCC#Cc1nccc(N2C3CCC2CN(c2cc(-c4ccccc4O)nnc2N)C3)n1 shows DC50 equal to 0.05 to 0.5 µM

The compound listed as Nc1nnc(-c2ccccc2O)cc1N1CCC2(CCCN(c3ccnc(C#CCNC(=O)c4cc5ncccn5n4)n3)C2)CC1 shows DC50 equal to 0.05 to 0.5 µM

The compound listed as CN(C)CC#Cc1nccc(N2CCCC(c3cc(-c4ccccc4O)nnc3N)CC2)n1 (stereo not drawn) shows DC50 equal to < 0.05 µM

The compound listed as C[C@@H]1CCN(c2cc(-c3ccccc3O)nnc2N)CCN1c1ccnc(C#CCN2CCOCC2)n1 shows DC50 equal to 0.05 to 0.5 µM

The compound listed as CN(CC#Cc1nccc(N2CCCN(c3cc(-c4ccccc4O)nnc3N)CC2)n1)C(=O)c1cc2ncccn2n1 shows DC50 equal to < 0.05 µM

The compound listed as C[C@@H]1CCN(c2cc(-c3ccccc3O)nnc2N)CCN1c1nc(C#CCN2CCCC2=O)ncc1F shows DC50 equal to 0.05 to 0.5 µM

The compound listed as Nc1nnc(-c2ccccc2O)cc1N1CC2CCC(C1)N2c1ccnc(C#CCCCNC(=O)c2cc3ncccn3n2)n1 shows DC50 equal to 0.5 to 5 µM

----------
Give measured DC50 for each item. Keep answers brief.
system-name: SMARCA2-HiBiT HeLa cells (protein which is expressed from the SMARCA2 gene) (Homo sapiens)
Construct: protein which is expressed from the SMARCA2 and SMARCA4 genes; host or cells: HeLa (SMARCA2-HiBiT engineered line)
method-description: SMARCA2 degradation assay (HiBiT-fusion HeLa cell line, 24 h, luminescence)
Format: cell-based

The molecule listed as Cn1ccnc1C#Cc1nccc(N2CCCN(c3cc(-c4ccccc4O)nnc3N)CC2)n1 shows DC50 equal to 500 to 5000 nM

The molecule listed as C[C@@H]1CCCN1CC#Cc1nccc(N2CCN(c3cc(-c4ccccc4O)nnc3N)CC[C@H]2C)n1 shows DC50 equal to < 50 nM

The molecule listed as CC(C#Cc1nccc(N2CCN(c3cc(-c4ccccc4O)nnc3N)CC2)n1)NC(=O)c1cc2ncccn2n1 (stereo not shown) shows DC50 equal to 50 to 500 nM

The molecule listed as Nc1nnc(-c2ccccc2O)cc1N1CCCN(c2ccnc(C#CCNC3CCOCC3)n2)CC1 shows DC50 equal to 50 to 500 nM

The molecule listed as CN(C)CC#Cc1nccc(N2C[C@@H]3CN(c4cc(-c5ccccc5O)nnc4N)C[C@@H]3C2)n1 shows DC50 equal to 50 to 500 nM

The molecule listed as CC[C@@H](C)NCC#Cc1nccc(N2CCCN(c3cc(-c4ccccc4O)nnc3N)CC2)n1 shows DC50 equal to 50 to 500 nM

The molecule listed as Nc1nnc(-c2ccccc2O)cc1N1CCN(c2ccnc(C#CCNC(=O)c3cnn4ccccc34)n2)CC1 shows DC50 equal to 50 to 500 nM

----------
system-name: SMARCA4-HiBiT HeLa cells (protein which is expressed from the SMARCA4 gene) (Homo sapiens)
Construct: protein which is expressed from the SMARCA2 and SMARCA4 genes; host or cells: HeLa (SMARCA4-HiBiT engineered line)
method-description: SMARCA4 degradation assay (HiBiT-fusion HeLa cell line, 24 h, luminescence)
Assay type: cell-based
measure: DC50

The molecule listed as Nc1nnc(-c2ccccc2O)cc1N1CCN(c2ccnc(C#CCNC(=O)c3cc4n(n3)CCCO4)n2)CC1 shows DC50 equal to < 50 nM

The molecule listed as COCC1CN(CC#Cc2nccc(N3CCN(c4cc(-c5ccccc5O)nnc4N)CC[C@H]3C)n2)CCO1 (stereo partly shown) shows DC50 equal to 50 to 500 nM

The molecule listed as Cc1c(C(=O)NCC#Cc2nccc(N3CCN(c4cc(-c5ccccc5O)nnc4N)CC3)n2)nn(C)c1C shows DC50 equal to < 50 nM

The molecule listed as Nc1nnc(-c2ccccc2O)cc1N1CCCN(c2ccnc(/C=C/CNC(=O)c3cnc4ccccc4n3)n2)CC1 shows DC50 equal to 50 to 500 nM

The molecule listed as C[C@@H]1CCN(c2cnnc(-c3ccccc3O)c2)CCN1c1ccc(C#N)c(C#CCNC(=O)c2cc3ncccn3n2)n1 shows DC50 equal to > 5000 nM

The molecule listed as COC[C@H](C)NCC#Cc1nccc(N2CCCN(c3cc(-c4ccccc4O)nnc3N)CC2)n1 shows DC50 equal to 50 to 500 nM

The molecule listed as Nc1nnc(-c2ccccc2O)cc1N1CCN(c2ccnc(C#CCCNC(=O)c3cc4ncccn4n3)n2)CC1 shows DC50 equal to 50 to 500 nM

----------
system-name: SMARCA2-HiBiT HeLa cells (protein which is expressed from the SMARCA2 gene) (Homo sapiens, UniProt P51531)
Construct: protein which is expressed from the SMARCA2 and SMARCA4 genes; host or cells: HeLa (SMARCA2-HiBiT engineered line)
Sequence (P51531 whole entry): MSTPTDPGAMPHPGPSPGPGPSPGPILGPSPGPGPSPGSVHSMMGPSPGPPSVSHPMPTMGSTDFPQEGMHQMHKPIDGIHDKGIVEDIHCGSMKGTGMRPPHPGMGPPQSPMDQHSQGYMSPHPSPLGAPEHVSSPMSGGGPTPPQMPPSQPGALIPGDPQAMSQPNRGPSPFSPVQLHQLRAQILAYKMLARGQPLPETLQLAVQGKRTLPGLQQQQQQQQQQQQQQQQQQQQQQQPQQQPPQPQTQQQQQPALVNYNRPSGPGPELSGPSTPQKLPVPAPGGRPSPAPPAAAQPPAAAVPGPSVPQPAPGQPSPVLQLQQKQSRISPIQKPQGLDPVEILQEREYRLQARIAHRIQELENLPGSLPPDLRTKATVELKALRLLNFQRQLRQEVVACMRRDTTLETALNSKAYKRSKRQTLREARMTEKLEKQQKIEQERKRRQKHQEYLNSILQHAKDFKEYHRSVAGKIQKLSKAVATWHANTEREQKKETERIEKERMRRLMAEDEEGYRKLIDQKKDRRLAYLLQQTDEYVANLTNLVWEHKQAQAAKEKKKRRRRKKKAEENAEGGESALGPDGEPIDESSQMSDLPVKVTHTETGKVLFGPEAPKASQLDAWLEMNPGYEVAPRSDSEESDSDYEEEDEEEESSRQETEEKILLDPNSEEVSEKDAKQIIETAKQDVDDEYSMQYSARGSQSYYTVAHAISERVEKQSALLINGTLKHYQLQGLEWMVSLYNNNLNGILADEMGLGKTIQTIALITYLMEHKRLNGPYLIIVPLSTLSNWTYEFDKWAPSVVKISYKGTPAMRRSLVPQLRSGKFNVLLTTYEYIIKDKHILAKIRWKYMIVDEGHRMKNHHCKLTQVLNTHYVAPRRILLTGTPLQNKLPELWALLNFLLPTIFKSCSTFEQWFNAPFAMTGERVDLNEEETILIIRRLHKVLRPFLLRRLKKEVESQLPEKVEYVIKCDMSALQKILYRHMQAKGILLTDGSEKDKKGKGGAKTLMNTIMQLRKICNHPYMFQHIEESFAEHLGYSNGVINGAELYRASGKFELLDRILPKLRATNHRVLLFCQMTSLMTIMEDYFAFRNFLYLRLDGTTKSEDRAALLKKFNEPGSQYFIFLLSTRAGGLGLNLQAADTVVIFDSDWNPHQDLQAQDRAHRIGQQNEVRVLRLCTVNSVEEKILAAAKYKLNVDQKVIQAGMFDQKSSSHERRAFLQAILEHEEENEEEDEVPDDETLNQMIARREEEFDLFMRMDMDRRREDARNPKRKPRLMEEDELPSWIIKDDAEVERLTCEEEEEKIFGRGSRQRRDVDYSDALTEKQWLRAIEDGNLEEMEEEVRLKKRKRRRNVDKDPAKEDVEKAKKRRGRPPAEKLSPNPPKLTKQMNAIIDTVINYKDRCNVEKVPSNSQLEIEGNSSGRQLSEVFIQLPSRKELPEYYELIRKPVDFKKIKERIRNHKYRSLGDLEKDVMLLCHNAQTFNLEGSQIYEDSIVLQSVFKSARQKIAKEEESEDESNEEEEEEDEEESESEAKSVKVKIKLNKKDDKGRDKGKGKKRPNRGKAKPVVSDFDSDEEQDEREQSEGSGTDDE
method-description: SMARCA2 degradation assay (HiBiT-fusion HeLa cell line, 24 h, luminescence)
Format: cell-based
cond: @ 1 μM
measure: SMARCA2 % Degradation @ 1 μM

# example entries with known answers
C[C@@H]1CCN(c2cc(-c3ccccc3O)nnc2N)CCN1c1ccnc(C#CCN2CC(C#N)C2)n1; +++ (+++=>70%)
C[C@H]1CCN(c2cc(-c3ccccc3O)nnc2N)CCN1c1ccnc(C#CCN(C)C)n1; +++ (+++=>70%)
C[C@@H]1CCN(c2cc(-c3ccccc3O)nnc2N)CCN1c1ccnc(C#CCn2ccnc2)n1; +++ (+++=>70%)
C[C@H](O)C#Cc1nccc(N2CCCN(c3cc(-c4ccccc4O)nnc3N)CC2)n1; ++ (++=30-70%)
CC1(F)CCN(CC#Cc2nccc(N3CC4CCC(C3)N4c3cc(-c4ccccc4O)nnc3N)n2)C1 (stereo not shown); ++ (++=30-70%)

# context switch: different compound, same SMARCA2 % Degradation @ 1 μM
The compound listed as C[C@H]1CCN(c2cc(-c3ccccc3O)nnc2N)CCN1c1ccnc(C#CCN(C)CC(F)(F)F)n1 shows SMARCA2 % Degradation @ 1 μM equal to ++ (++=30-70%)

----------
system-name: SMARCA2-HiBiT HeLa cells (protein which is expressed from the SMARCA2 gene) (Homo sapiens, UniProt P51531)
Construct: protein which is expressed from the SMARCA2 and SMARCA4 genes; host or cells: HeLa (SMARCA2-HiBiT engineered line)
method-description: SMARCA2 degradation assay (HiBiT-fusion HeLa cell line, 24 h, luminescence)
Assay type: cell-based
cond: @ 1 μM
measure: SMARCA2 % Degradation @ 1 μM

# example entries with known answers
Nc1nnc(-c2ccccc2O)cc1N1CCCN(c2ccnc(C#Cc3cccc4nccn34)n2)CC1; ??
C[C@H]1CCN(c2cc(-c3ccccc3O)nnc2N)CCN1c1ccnc(C#CCNC(=O)c2cnc3ccccc3n2)n1; +++ (+++=>70%)
C[C@@H]1CCN(c2cc(-c3ccccc3O)nnc2N)CCN1c1ccnc(C#CCN(C)CCF)n1; ++ (++=30-70%)
C[C@@H]1CCN(c2cc(-c3ccccc3O)nnc2N)CCN1c1ccnc(C#CCNC(=O)c2cc3ncccn3n2)n1; +++ (+++=>70%)

The molecule listed as CN1CCCC1C#Cc1nccc(N2CCCN(c3cc(-c4ccccc4O)nnc3N)CC2)n1 (stereo not drawn) shows SMARCA2 % Degradation @ 1 μM equal to +++ (+++=>70%)
